- System under test: acyl-CoA:cholesterol acyltransferase (ACAT) (Oryctolagus cuniculus)
- Sequence (G1SFD9 1-524): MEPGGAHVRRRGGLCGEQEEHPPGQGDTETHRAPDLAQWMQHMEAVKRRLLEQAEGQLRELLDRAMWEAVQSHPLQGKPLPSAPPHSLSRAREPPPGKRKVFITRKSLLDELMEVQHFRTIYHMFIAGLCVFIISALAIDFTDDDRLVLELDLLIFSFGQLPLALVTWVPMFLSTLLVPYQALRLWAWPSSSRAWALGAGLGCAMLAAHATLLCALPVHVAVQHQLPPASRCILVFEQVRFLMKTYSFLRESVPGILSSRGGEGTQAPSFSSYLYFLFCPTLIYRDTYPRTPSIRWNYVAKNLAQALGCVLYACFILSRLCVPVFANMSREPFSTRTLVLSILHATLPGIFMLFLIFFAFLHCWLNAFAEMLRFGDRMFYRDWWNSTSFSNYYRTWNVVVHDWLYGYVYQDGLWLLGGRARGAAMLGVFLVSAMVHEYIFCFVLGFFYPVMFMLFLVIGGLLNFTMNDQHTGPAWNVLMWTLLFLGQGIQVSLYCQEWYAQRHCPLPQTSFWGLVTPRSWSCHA
Recorded endpoint: IC50 (nM)

INSERT INTO results (compound, observed_measurement) VALUES
  ('CCc1cccc(CC)c1NC(=O)NC(Cc1ccccc1)c1ccccc1 (stereo not shown) [Example 1]', 93);
